Hello, the source for this data is ChEMBL document CHEMBL1128242, in case you need it.

tested on: Rattus norvegicus; assay: Distribution of radioactivity was determined in thyroid at 30 min after intravenous administration of [125I]-labeled 2-oleoglycerol 1,3-Bis-[omega-(3-amino-2,4,6-triiodophenyl)alkanoates] in rats; assay type: ADME, organism-based, Thyroid gland; conditions: in vivo, 0.5 h
observable: Distribution of radioactivity (% dose/g)
Give just the numeric value; % dose/g need not be written.

Below are worked cases with known answers.
Exercise: What does the data say about its Distribution of radioactivity? Entry: CCCCCCCC/C=C/CCCCCCCC(=O)OC(COC(=O)CCCCCc1c(I)cc(I)c(N)c1I)COC(=O)CCCCCc1c(I)cc(I)c(N)c1I
Key: 0.54

Exercise: Quick one: Distribution of radioactivity for CCCCCCCC/C=C/CCCCCCCC(=O)OC(COC(=O)CCCCc1c(I)cc(I)c(N)c1I)COC(=O)CCCCc1c(I)cc(I)c(N)c1I ?
Key: 0.54

Exercise: Please look up its Distribution of radioactivity: CCCCCCCC/C=C/CCCCCCCC(=O)OC(COC(=O)Cc1c(I)cc(I)c(N)c1I)COC(=O)Cc1c(I)cc(I)c(N)c1I
Key: 0.16

Exercise: Requested field: Distribution of radioactivity. Item: CCCCCCCC/C=C/CCCCCCCC(=O)OC(COC(=O)C(CC)Cc1c(I)cc(I)c(N)c1I)COC(=O)C(CC)Cc1c(I)cc(I)c(N)c1I (stereo not given)
Key: 2.88

Continue with the compound presented below.
Exercise: Need Distribution of radioactivity, item CCCCCCCC/C=C/CCCCCCCC(=O)OC(COC(=O)CCCCCCc1c(I)cc(I)c(N)c1I)COC(=O)CCCCCCc1c(I)cc(I)c(N)c1I
Key: 0.31

###

In this section we review reported Distribution of radioactivity values for a set of compounds.
tested on: Rattus norvegicus; assay: Distribution of radioactivity was determined in kidney at 24 hr after intravenous administration of [125I]-labeled 2-oleoglycerol 1,3-Bis-[omega-(3-amino-2,4,6-triiodophenyl)alkanoates] in rats; type: ADME, organism-based; conditions: in vivo
State the answer as a number, implicitly in % dose/g.

Exercise: Item under review: CCCCCCCC/C=C/CCCCCCCC(=O)OC(COC(=O)Cc1c(I)cc(I)c(N)c1I)COC(=O)Cc1c(I)cc(I)c(N)c1I . Reported Distribution of radioactivity?
Key: 0.07

Exercise: Consider the compound CCCCCCCC/C=C/CCCCCCCC(=O)OC(COC(=O)CCCCc1c(I)cc(I)c(N)c1I)COC(=O)CCCCc1c(I)cc(I)c(N)c1I and give its measured Distribution of radioactivity.
Key: 0.2

Exercise: Fill blank: measured Distribution of radioactivity of the compound CCCCCCCC/C=C/CCCCCCCC(=O)OC(COC(=O)CCCCCc1c(I)cc(I)c(N)c1I)COC(=O)CCCCCc1c(I)cc(I)c(N)c1I is ____.
Key: 0.25

Exercise: Report Distribution of radioactivity for CCCCCCCC/C=C/CCCCCCCC(=O)OC(COC(=O)CCCCCCc1c(I)cc(I)c(N)c1I)COC(=O)CCCCCCc1c(I)cc(I)c(N)c1I please.
Key: 0.22

Next:
Exercise: Data request, read-out Distribution of radioactivity, for CCCCCCCC/C=C/CCCCCCCC(=O)OC(COC(=O)C(CC)Cc1c(I)cc(I)c(N)c1I)COC(=O)C(CC)Cc1c(I)cc(I)c(N)c1I (stereo not given)
Key: 0.05

###

tested on: Rattus norvegicus; experiment: Polyacrylamide Gel Electrophoresis (PAGE) to determined the concentration of stacking gel(SG) in rats after iv administration of [125I]-labeled 2-Oleolyl 1,3-disubstituted triglycerols was reported; format: ADME, organism-based; conditions: in vivo
Some compounds, each annotated with its measured Radioactivity.
Give your result in % as a bare value.

Sample records with Radioactivity:
Exercise: Please tell me: Radioactivity of CCCCCCCC/C=C/CCCCCCCC(=O)OC(COC(=O)CCc1c(I)cc(I)c(N)c1I)COC(=O)CCc1c(I)cc(I)c(N)c1I , system Rattus norvegicus?
Key: 67.3

Exercise: Give Rattus norvegicus Radioactivity for CCCCCCCC/C=C/CCCCCCCC(=O)OC(COC(=O)C(CC)Cc1c(I)cc(I)c(N)c1I)COC(=O)C(CC)Cc1c(I)cc(I)c(N)c1I (configuration not stated)
Key: 83.5

Exercise: Form entry - test system: Rattus norvegicus; read-out: Radioactivity; compound: CCCCCCCC/C=C/CCCCCCCC(=O)OC(COC(=O)CCCc1c(I)cc(I)c(N)c1I)COC(=O)CCCc1c(I)cc(I)c(N)c1I
Key: 80.9

Exercise: Missing value: Radioactivity, Rattus norvegicus, entry CCCCCCCC/C=C/CCCCCCCC(=O)OC(COC(=O)CCCCc1c(I)cc(I)c(N)c1I)COC(=O)CCCCc1c(I)cc(I)c(N)c1I . Fill in?
Key: 65.6

Exercise: For Rattus norvegicus, provide Radioactivity of CCCCCCCC/C=C/CCCCCCCC(=O)OC(COC(=O)CCCCCCc1c(I)cc(I)c(N)c1I)COC(=O)CCCCCCc1c(I)cc(I)c(N)c1I please.
Key: 28.1

Exercise: Lookup: Radioactivity / Rattus norvegicus / CCCCCCCC/C=C/CCCCCCCC(=O)OC(COC(=O)Cc1c(I)cc(I)c(N)c1I)COC(=O)Cc1c(I)cc(I)c(N)c1I
Key: 95.7

Please find the next compound below.
Exercise: Fill in the recorded Radioactivity for this compound, with Rattus norvegicus as test system: CCCCCCCC/C=C/CCCCCCCC(=O)OC(COC(=O)CCCCCc1c(I)cc(I)c(N)c1I)COC(=O)CCCCCc1c(I)cc(I)c(N)c1I
Key: 72.6

###

// values below are reported Distribution of radioactivity
test system: Rattus norvegicus; test: Distribution of radioactivity was determined in spleen at 24 hr after intravenous administration of 1,3-Disubstituted Triacylglycerols in rats; format: ADME, organism-based; settings: in vivo
# value in % dose/organ; strip the unit string

Solved cases (3 shown):
Exercise: Given the entry CCCCCCCC/C=C/CCCCCCCC(=O)OC(COC(=O)CCCCc1c(I)cc(I)c(N)c1I)COC(=O)CCCCc1c(I)cc(I)c(N)c1I , what Distribution of radioactivity was observed with Rattus norvegicus?
Key: 6.4

Exercise: API: value(readout=Distribution of radioactivity, system=Rattus norvegicus) for record CCCCCCCC/C=C/CCCCCCCC(=O)OC(COC(=O)CCCCCc1c(I)cc(I)c(N)c1I)COC(=O)CCCCCc1c(I)cc(I)c(N)c1I
Key: 5.8

Exercise: Lookup: Distribution of radioactivity / Rattus norvegicus / CCCCCCCC/C=C/CCCCCCCC(=O)OC(COC(=O)C(CC)Cc1c(I)cc(I)c(N)c1I)COC(=O)C(CC)Cc1c(I)cc(I)c(N)c1I (stereo not given)
Key: 12.5

***
Exercise: State its Distribution of radioactivity on Rattus norvegicus: CCCCCCCC/C=C/CCCCCCCC(=O)OC(COC(=O)CCCCCCc1c(I)cc(I)c(N)c1I)COC(=O)CCCCCCc1c(I)cc(I)c(N)c1I
Key: 0.8

Exercise: Please provide the recorded Distribution of radioactivity for CCCCCCCC/C=C/CCCCCCCC(=O)OC(COC(=O)Cc1c(I)cc(I)c(N)c1I)COC(=O)Cc1c(I)cc(I)c(N)c1I , tested on Rattus norvegicus.
Key: 12.2

###

The following compounds are shown together with reported Lipid-soluble radioactivity values.
tested on: Rattus norvegicus; assay: Analysis of lipid-soluble radioactivity in plasma 24 hour after iv administration of [125I]-labeled 2-Oleoyl 1,3-disubstituted Triacylglycerols and represented as % CHCl3/CH3OH from rat; type: ADME, organism-based; settings: in vivo
Please give the numeric answer without any surrounding text.

A selection of reference data follows.
Exercise: What value of Lipid-soluble radioactivity on Rattus norvegicus does CCCCCCCC/C=C/CCCCCCCC(=O)OC(COC(=O)CCCCc1c(I)cc(I)c(N)c1I)COC(=O)CCCCc1c(I)cc(I)c(N)c1I have?
Key: 54.5

Exercise: Tell me reported Lipid-soluble radioactivity for CCCCCCCC/C=C/CCCCCCCC(=O)OC(COC(=O)CCCCCc1c(I)cc(I)c(N)c1I)COC(=O)CCCCCc1c(I)cc(I)c(N)c1I , tested with Rattus norvegicus.
Key: 80.6

Exercise: Checklist item: Lipid-soluble radioactivity tested on Rattus norvegicus, entry CCCCCCCC/C=C/CCCCCCCC(=O)OC(COC(=O)C(CC)Cc1c(I)cc(I)c(N)c1I)COC(=O)C(CC)Cc1c(I)cc(I)c(N)c1I (stereo not given) , value?
Key: 83

Exercise: API: value(readout= Lipid-soluble radioactivity, system= Rattus norvegicus, query= CCCCCCCC/C=C/CCCCCCCC(=O)OC(COC(=O)CCCCCCc1c(I)cc(I)c(N)c1I)COC(=O)CCCCCCc1c(I)cc(I)c(N)c1I )
Key: 15.3

Read the next record carefully.
Exercise: State its Lipid-soluble radioactivity on Rattus norvegicus: CCCCCCCC/C=C/CCCCCCCC(=O)OC(COC(=O)Cc1c(I)cc(I)c(N)c1I)COC(=O)Cc1c(I)cc(I)c(N)c1I
Key: 24.4
